# Tested on: Spodoptera littoralis larvae
# assayComment: Melanotropic inhibitory activity: injection with a stimulator (PBAN, PT, LPK, DH)
# Format: in vivo
# conditionDescription: injected with PBAN; 100 pm; inhibition = 100 minus % melanization with vs without peptide
Square brackets hold non-standard residues; d marks the D form. * marks the point of attachment. Cyclohexyl = cyclohexyl group capping the N-terminus, C1CCC(*)CC1
parameter: Melanotropic inhibitory activity, stimulator PBAN (%)
The reply should contain only the number, in %.

substance	recordedValue
Acetyl-Ala-Ser-Pro-[dPhe]-Leu-amide (Ac-ASP[dF]L-NH2; SMILES CC(=O)N[C@@H](C)C(=O)N[C@@H](CO)C(=O)N1CCC[C@H]1C(=O)N[C@H](Cc1ccccc1)C(=O)N[C@@H](CC(C)C)C(N)=O) [Ac-A-dPhe-6]	63
Acetyl-Ala-[dPhe]-Pro-Arg-Leu-amide (Ac-A[dF]PRL-NH2; SMILES CC(=O)N[C@@H](C)C(=O)N[C@H](Cc1ccccc1)C(=O)N1CCC[C@H]1C(=O)N[C@@H](CCCNC(=N)N)C(=O)N[C@@H](CC(C)C)C(N)=O) [Ac-A-dPhe-4]	54

Value of Melanotropic inhibitory activity, stimulator PBAN reported for the substance Cyclohexyl-Ala-[dPhe]-Pro-Arg-Leu-amide (Cyclohexyl-A[dF]PRL-NH2; SMILES CC(C)C[C@H](NC(=O)[C@H](CCCNC(=N)N)NC(=O)[C@@H]1CCCN1C(=O)[C@@H](Cc1ccccc1)NC(=O)[C@H](C)NC1CCCCC1)C(N)=O) [Cyc-A-dPhe-4] is 7
